Entries and their normalized growth values follow.
- ASSAY NOTES: chemical genetic growth profiling, strain panel (AID 1159580);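 further: tested at 20 µM; growth read once vehicle control cultures reached saturation at 30 °C; 1 = growth at the plate median or of vehicle wells; lower values mean less growth of the strain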
- APPLIED CONDITIONS: S. cerevisiae deletion strains, growth OD, locus YGR252W, strain gcn5, stronger effect = lower value
Hit rate of the full screen: of about 5,500 compounds, about 2,000 (36%) were called active. Not shown: some 18% with an inconclusive outcome. The list shows a part of the results.
Please give the numeric answer without any surrounding text.

                                   compound      property_name  observed
0  CC(C)=CCCC1(C)C=Cc2c(O)c3c(c(CC=C(C)C)c2O1)OC12C(CC4CC1C(C)(C)OC2(C/C=C(/C)C(=O)O)C4O)C3=O (centres undefined)  normalized growth      1.17

Which measured normalized growth value corresponds to "CC(=O)NCc1c(I)c(NC(C)=O)c(I)c(C(=O)O)c1I" ? 1.16

So what does the record say about normalized growth for CC(C)=CCCC1(C)C=Cc2c(O)c3c(c(CC=C(C)C)c2O1)OC12C(=CC4CC1C(C)(C)OC2(C/C=C(/C)C(=O)O)C4O)C3=O (centres undefined) ? 1.06

State the recorded normalized growth for this entry: CC(=O)Nc1ccc(OCC(O)CNC(C)C)cc1 (centres undefined) 0.975
